Value source: the METLIN SMRT retention time set (Domingo-Almenara et al. 2019)

- test: gradient 5% acetonitrile 3 min, to 50% in 2 min, to 85% in 15 min, held 3 min, 100 µL/min
- measurementParameters: column: Zorbax Extend-C18 2.1 x 50 mm; eluents: water / acetonitrile, 0.1% formic acid
RP-LC retention time vs 700 s: less than gives class 1; not less than gives class 0.

Is it true that RP-LC retention time reported for O=C(c1ccsc1)N1CCN(c2ccccn2)CC1 is less than 700 s?
class 1

Can you check COc1ccc(C(=O)Nc2cc(-c3cccnc3)no2)c(C)c1 next?
class 0

Then this molecule: CCc1cc(=O)n(CC(=O)NCc2ccc(C)cc2)c(N)n1
class 1

// repeat for CCc1nc(-c2csc(S(=O)(=O)N3CCC(C(=O)Nc4ccc(C)cc4C)CC3)c2)no1 and report
class 0

Now try O=c1ccn(-c2ccc(Cl)cc2)nc1-c1nc(-c2ccc(F)cc2)no1 .
class 0

And CCn1cc(C(=O)NCc2ccc(Br)cc2)c2cccnc21 ?
class 0

Can you check CCc1nc(-c2csc(S(=O)(=O)N3CCC(C(=O)Nc4ccc(F)c(Cl)c4)CC3)c2)no1 next?
class 0

Next molecule: COc1ccc(N2C(=O)C3N=NN(Cc4nc(-c5ccc(C)c(C)c5)no4)C3C2=O)cc1 (stereo not given)
class 0

Now consider O=C1C(c2cccnc2)N(c2ccc3c(c2)OCCO3)C(=O)CN1c1ccccc1 (stereo not given) and answer again.
class 1

---

- test: gradient 5% acetonitrile 3 min, to 50% in 2 min, to 85% in 15 min, held 3 min, 100 µL/min
- measurementParameters: column: Zorbax Extend-C18 2.1 x 50 mm; eluents: water / acetonitrile, 0.1% formic acid
Use t when the recorded RP-LC retention time is no lower than 800 s; use f when it is lower.

Hi team, for O=C(C1CCN(c2ncnc3c2oc2ccccc23)CC1)N1CCN(c2ccccc2F)CC1 , is the recorded RP-LC retention time at or above 800 s?
t

Then CCN1CCN(Cc2nc(Cn3ccn4nc(-c5ccc(C)c(C)c5)cc4c3=O)no2)CC1 ?
f

Another compound to look at: Cc1ccc(C(=O)N2CCN(c3nc(CN4CCC(C)CC4)cs3)CC2)cc1F
f

Proceed to CC1CCN(CCCNS(=O)(=O)c2ccccc2-c2nc(-c3ccccc3)no2)CC1
f

Another: O=C(Nc1ccccc1F)N1CCCC1c1nc(-c2ccccc2)no1 (centres undefined)
t

Proceed to CCCn1c(=O)sc2cc(S(=O)(=O)N3CCC(C(=O)NCc4ccco4)CC3)ccc21
t

Ok, now CCOc1ccccc1CNC(=O)CN1C(=O)CSc2cccn2-c2ccccc21
t

Input O=C(Nc1ccc(F)cc1F)Nc1nccn(-c2cccc(F)c2)c1=O
t

Now the same for CC(C)[C@H]1C(=O)O[C@@H]2CCN3CC=C(COC(=O)[C@](C)(O)[C@]1(C)O)[C@H]23
f

---

- test: gradient 5% acetonitrile 3 min, to 50% in 2 min, to 85% in 15 min, held 3 min, 100 µL/min
- measurementParameters: column: Zorbax Extend-C18 2.1 x 50 mm; eluents: water / acetonitrile, 0.1% formic acid
Assign RP-LC retention time to each entry below.
Give the quantity in s, number only.

Given the entry CCCOc1nc2ccccc2nc1N1CCCC(C(=O)NCc2ccc(C)cc2)C1 (stereo not given) , report its measured RP-LC retention time.
1240

Continue with COc1ccc(-c2nnc(-c3cccnc3N3CCN(c4ccccc4C)CC3)o2)cc1
1280

Ok, now Cc1ccc(NC(=O)N2C[C@@H](F)C[C@H]2C(=O)N2CCCCC2)cc1F
755

Queued: Cc1ccc(C2Cn3nnc(C(=O)N4CCN(C(=O)c5ccco5)CC4)c3CO2)cc1 (stereo not given)
844

Subsequent entry: CN1CCN(c2c(C(=O)c3ccccc3)cnc3cc4c(cc23)OCO4)CC1
560

---

Record form. Attribute: RP-LC retention time. Fill in for each entry.
- test: gradient 5% acetonitrile 3 min, to 50% in 2 min, to 85% in 15 min, held 3 min, 100 µL/min
- measurementParameters: column: Zorbax Extend-C18 2.1 x 50 mm; eluents: water / acetonitrile, 0.1% formic acid
Provide only the numeric value, understood in s.

For the molecule COc1ccccc1CNS(=O)(=O)c1ccc(-c2c(C)noc2C)cc1 , what RP-LC retention time is on record?
922

Another: Cc1oc(-c2ccc(NC(=O)Cc3cccc(F)c3)cc2)nc1Cn1cccn1
814

Field entry: O=C(NC1CC1)C1COC2(CCN(C(=O)c3cccc(Cl)c3)CC2)N1C(=O)c1cccc(F)c1 (stereo not given)
738

Follow-up item: O=C1CCCN1Cc1nc(-c2ccc(F)c(Cl)c2)no1
853

Field entry: CS(=O)(=O)c1ccc2nc(NC(=O)C3COCC(=O)N3Cc3ccccc3)sc2c1 (stereo not given)
649

Same question for O=C(NCCCN1CCCCC1)C1CCCN(c2ncc(-c3cccc(F)c3)cn2)C1 (stereo not given) please.
684

// query: COc1cc(C[C@H](C)N)c(OC)cc1I
705

Repeat for the following molecule: Cc1nc(-c2csc(S(=O)(=O)N3CCC(C(=O)NCCc4cccs4)CC3)c2)no1
860

Here is the next molecule: Clc1cccc(CN2CCCN(c3ncccc3-c3nc(C4CC4)no3)CC2)c1
723

What do you have for Cc1ccc(C(=O)N2CCCn3nc(-c4ccc(Cl)cc4)cc3C2)s1 ?
931

Now try c1ccc(OCc2nc(-c3cccc(-c4ccn[nH]4)c3)no2)cc1 .
906

Now this one: COc1ncc(C(=O)NCc2ccccc2Cl)cn1
737

Please do the same for CCCn1c(=O)c(C)nc2cc(-c3noc(CN4C(=O)COc5ccc(Cl)cc54)n3)ccc21 as well.
1060

Now this one: COc1ccc(NC(=O)C2CCN(S(=O)(=O)c3cc(C(=O)N4CCCC4)n(C)c3)CC2)cc1
729

Cool, now COc1ccc(N2C(=O)C3N=NN(c4ccc(F)cc4)C3C2=O)cc1 (stereo not given)
923

Now the molecule CNS(=O)(=O)c1cc(C(=O)Nc2cc(C)on2)oc1C
643

Would you mind doing CCCCN1CC(c2nc3ccccc3n2CC(=O)N(c2ccccc2)C(C)C)CC1=O (stereo not given) as well?
792

Thanks! And COCCNS(=O)(=O)c1cc(-c2nc(CC(C)C)cs2)cs1 ?
1010

Same read-out for CCCn1c(-c2cccc(C(=O)NCc3cccs3)c2)nc2cccnc21 ?
782

Now the molecule CN1CCCCCCN(C(=O)c2cccn2C)[C@H]2CCC[C@H]2C1=O
816

---

- test: gradient 5% acetonitrile 3 min, to 50% in 2 min, to 85% in 15 min, held 3 min, 100 µL/min
- measurementParameters: column: Zorbax Extend-C18 2.1 x 50 mm; eluents: water / acetonitrile, 0.1% formic acid
Would you kindly list RP-LC retention time for each of these molecules?
A number alone suffices; assume s.

Entry CCc1nn2c(CNS(=O)(=O)c3ccc(C)cc3C)c(-c3ccccc3)nc2s1 : reported RP-LC retention time = ?
1020

// same read-out, input: O=C(CCc1ccccc1)N1CCC(c2noc(-c3cnccn3)n2)C1 (stereo not given)
735

And for CCc1noc(-c2ccc(-n3cnc(C(=O)NC4CCCCCC4)c3)nc2)n1 ?
968

Also Cc1ccc(NC(=O)N2C[C@@H](F)C[C@H]2C(=O)N2CCc3ccccc3C2)c(C)c1 , if possible.
817

Try this molecule too: Cc1ccc(Cn2c(=O)c(N3CCCC(C(=O)NCCc4ccco4)C3)nc3ccccc32)cc1 (stereo not given)
1090

What do you get for CCN1CCCCc2cc(C(=O)N(C)CCN(C)C)sc21 ?
638

Check O=C(NCc1nc(-c2ccccc2)no1)c1csc(-n2cccc2)n1 too.
894

Same for Cn1c(-c2cccc(C(=O)NCc3cc(F)cc(F)c3)c2)nc2cccnc21
762

Now the same for COc1ccc(C(=O)NCCC2=CCCCC2)cc1
846

Check Cc1ccsc1C(=O)Nc1ccc(-c2nnc3n2CCCC3)cc1 too.
666

Quick one: CCCn1ncc(N2CCC(C(=O)N3CCN(C(C)C)CC3)CC2)cc1=O
566

Could you do the same for CC(C)NC(=O)c1c(OCC2CC2)cc(=O)n2c1CCCCC2 , please?
673

Try this molecule next: Cc1nc(-c2csc(S(=O)(=O)N3CCC(C(=O)N4CCOCC4)CC3)c2)no1
719

Next: Cc1ccccc1Nc1c(-c2ccc(O)cc2)nc2ccccn12
653

# iterate: Cn1ncc2c(N3CCSCC3)nc(C(=O)N3CCN(c4ccc(F)cc4)CC3)nc21
841

For O=C(O)CCc1ccc(NCc2cccc(Oc3ccccc3)c2)cc1 then?
1040

Another molecule: CCCOc1c(C(=O)OC)sc2ccc(NC(=O)c3cc(-c4cccs4)[nH]n3)cc12
1110

Repeat with CCCNC(=O)C1CCCN(c2ccc(SCC(=O)Nc3cccc(Cl)c3C)nn2)C1 (stereo not given)
720

Please give the result for CCCNC(=O)C1CCCN(c2ccc(SCC(=O)Nc3ccc(C)cc3Cl)nn2)C1 (stereo not given) too.
748

Likewise for CS(=O)(=O)NC(=O)c1cc(Cl)c(COc2ccc(Cl)c(Cl)c2)cc1F ?
1170

Please answer likewise for Cc1nc2cc(N3CC(C(=O)Nc4ccc(Br)c(C)c4)CC3=O)ccc2o1 (stereo not given)
846

Note, next up: COc1ccc(-c2c(C)noc2NC(C)=O)cc1S(=O)(=O)NCc1ccc(C)cc1
784

Field entry: C[C@@H]1CN(C(=O)NCc2ccco2)C[C@H]1c1nc(-c2ccncc2)no1
676

Lookup Cc1cc(NC(=O)CN2CCc3ccccc3C2C(=O)N2CCCCC2)ccc1F (stereo not given)
964

Also need Cc1ccc2nc3c(c(C(=O)NC4CC4)c2c1)CCCC3 , thanks.
584

Field entry: Clc1cccc(-c2ccc(CNCc3ccco3)o2)c1
837

Cc1ccccc1Cn1c(CN2CCC(C(=O)N3CCCC3)CC2)cc2ccccc21 , same question.
757

Another: COc1ccc(-c2nn(Cc3ccccc3F)c(=O)c3nc(C)sc23)cc1OC
808

Please do the same for Cc1cccc(-c2nocc2CCC(=O)NCc2ccccc2)c1 as well.
907

Follow-up entry: O=C(NC1(c2nc(-c3ccccn3)no2)CCCCC1)c1ccccc1
848

Try this molecule too: CCOC(=O)c1[nH]c(C)c(C(=O)N2CCC(CC(=O)NC(C)C)CC2)c1C
643

Next up: CCOC(=O)c1cnc(N2CCN(c3ccc(F)cc3)CC2)c2ccccc12
1270

Would you mind doing Cc1cc2c(cc1CNC(=O)c1cc3c(cc1C)OCCCO3)OCCO2 as well?
846

Now the molecule COc1nccnc1N1CCC(NC(=O)Cc2cccnc2)C1 (stereo not given)
556

Next up: O=C1CN(c2ccccc2NC(=O)c2ccc[nH]c2=O)CCN1
588

Same for CC(OC(=O)Nc1cccc(Cl)c1)C(=O)O (stereo not given)
809

O=C(c1ccccc1)N1CCC(CCNS(=O)(=O)c2ccc(Br)cc2)CC1 ?
909

Next molecule up: COc1ccc(Cl)cc1NC(=O)c1c(O)c2cccnc2n(-c2ccc(F)cc2)c1=O
1280

Try the molecule COc1cc(CN2CC[C@@H]3CN(S(C)(=O)=O)[C@@H]3C2)ccc1F
598

What would you report for O=C(Cc1cccs1)N1CCN(C(=O)c2cc3cc(Br)ccc3[nH]2)CC1 ?
866
